From: patent US5747660A

- TGT: prostaglandin F2α receptor (FP)
- TEST PARAMETERS: read-out: [^3 H]PGF2α binding affinity; FP + pSG5, asFPRP, FPRP or dssFPRP: all 4 treatments similar
ASSAY ENDPOINT: pKd
Scale for pKd: -log10 of concentration given in mol/L; no unit attached.

Tell me its pKd given `CCCCC[C@H](O)/C=C/[C@@H]1[C@@H](C/C=C\CCCC(=O)O)[C@@H](O)C[C@H]1O` as the entry.
8.10

###

- Test system: prostaglandin F2α receptor (FP)
- TEST NAME: Effect of intracellular messenger altering agents on [3H]PGF2α binding and on FPRP inhibition of it
- Format: cell-based
- TEST PARAMETERS: FP + FPRP transfected cells treated with the agent
ASSAY ENDPOINT: % Control [^3 H]PGF2α Binding, FP + FPRP (%)
I only need the number, in %, no unit after it.

COMPOUND	ENDPOINT UNIT	% Control [^3 H]PGF2α Binding, FP + FPRP
Nc1ncnc2c1nc(Br)n2[C@@H]1O[C@@H]2COP(=O)(O)O[C@H]2[C@H]1O	%	52
CNc1ccc2oc(C[C@H]3O[C@@]4(CC[C@H]3C)O[C@H]([C@H](C)C(=O)c3ccc[nH]3)[C@H](C)C[C@H]4C)nc2c1C(=O)O	%	51
CCCCC[C@H](O)/C=C/[C@@H]1[C@@H](C/C=C\CCCC(=O)O)[C@@H](O)C[C@H]1O	%	40
CCCCC[C@H](O)/C=C/[C@H]1[C@H](O)CC(=O)[C@@H]1CCCCCCC(=O)O [PGE1, prostaglandin E1]	%	51

Tell me its % Control [^3 H]PGF2α Binding, FP + FPRP given CCCCCCCCCCCCCC(=O)OC1C(C)C2(O)C(C=C(CO)CC3(O)C(=O)C(C)=CC32)C2C(C)(C)C12OC(C)=O (centres unmarked) [Phorbol 12-myristate 13-acetate, phorbol 12-myristate 13-acetate] as the entry.
54

Tell me its % Control [^3 H]PGF2α Binding, FP + FPRP given `C[C@H]1CCC/C=C/[C@@H]2C[C@H](O)C[C@H]2[C@H](O)/C=C/C(=O)O1` as the entry.
27

Tell me its % Control [^3 H]PGF2α Binding, FP + FPRP given `C=C1[C@@H](O)[C@@H]2O[C@]3(CC[C@H](/C=C/[C@@H](C)[C@@H]4CC(C)=C[C@@]5(O[C@H](C[C@@](C)(O)C(=O)O)CC[C@H]5O)O4)O3)CC[C@H]2O[C@@H]1[C@@H](O)C[C@H](C)[C@H]1O[C@@]2(CCCCO2)CC[C@H]1C` as the entry.
45

Tell me its % Control [^3 H]PGF2α Binding, FP + FPRP given CCN(CC)CCCC(C)Nc1ccnc2cc(Cl)ccc12 (centres unmarked) as the entry.
37
